I'd appreciate it if you could supply Neutralization (ng/mL), Pseudovirus IC80 values for the items below.
testSystem: SARS-CoV-2 Spike as carried on rVSV-SARS-CoV-2 pseudovirus and authentic WT virus (SARS-CoV-2, UniProt P0DTC2 14-1273)
experimentSummary: cell-based or functional assay
Respond with the bare value in ng/mL.

Input line: Entry AB-8 full-length IgG1 (antibody, V domains shown) VH: EVQLEESGTVLARPGASVKMSCKASGYTFTTYWMHWIKQRPGQGLEWIGAIYPGNSDTIYNQKFKDKAKLTAVKSTSSAYMELSSLTNEDSAVYFCTREGIPQLLRTLDYWGQGTSVTVSS VL: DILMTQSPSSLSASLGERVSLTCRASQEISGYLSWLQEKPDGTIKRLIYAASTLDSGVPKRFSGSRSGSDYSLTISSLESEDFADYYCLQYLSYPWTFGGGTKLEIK : reported Neutralization (ng/mL), Pseudovirus IC80 = ?
Output line: 3.34

Input line: Give the measured Neutralization (ng/mL), Pseudovirus IC80 of AB-6 full-length IgG1 (antibody, V domains shown) VH: EVQLEESGTVLARPGASVKMSCKASGYTFTSYWMHWIKQRPGQGLEWIGAIYPGNSDTNYNQKFKDKAKLTAVKSTSSAYMELSSLTNEDSAVYFCTREGIPQLTRTLDYWGQGTSVTVSS VL: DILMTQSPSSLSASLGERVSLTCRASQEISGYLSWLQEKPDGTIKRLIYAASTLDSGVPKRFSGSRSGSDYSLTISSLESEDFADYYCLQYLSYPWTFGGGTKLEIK .
Output line: 27.2

Input line: Need Neutralization (ng/mL), Pseudovirus IC80 of AB-2 full-length IgG1 (antibody, V domains shown) VH: EVQLEESGTVLARPGASVKMSCKASGYTFTTYWMHWIKQRPGQGLEWIGAIYPGNGDTNYNQKFKDKAKLTAVKSTSSAYMELSSLTNEDSAVYFCTREGIPQLLRTLDYWGQGTSVTVSS VL: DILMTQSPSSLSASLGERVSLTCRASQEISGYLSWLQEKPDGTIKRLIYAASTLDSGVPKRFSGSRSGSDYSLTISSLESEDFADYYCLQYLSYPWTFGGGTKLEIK , thanks.
Output line: 35.2

Input line: Neutralization (ng/mL), Pseudovirus IC80 lookup needed for AB-9 full-length IgG1 (antibody, V domains shown) VH: EVQLEESGTVLARPGASVKMSCKASGYTFTSYWMHWIKQRPGQGLEWIGAIYPGNSDTNYNQKFKDKAKLTAVTSTSSAYMELSSLTNEDSAVYFCTREGIPQLLRTLDYWGQGTSVTVSS VL: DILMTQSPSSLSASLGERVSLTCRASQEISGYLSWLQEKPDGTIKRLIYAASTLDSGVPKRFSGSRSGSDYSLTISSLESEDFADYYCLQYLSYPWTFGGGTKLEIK , thanks.
Output line: 4.14

Input line: Dear colleague, I am looking for the recorded Neutralization (ng/mL), Pseudovirus IC80 of the following binder: AB-5 full-length IgG1 (antibody, V domains shown) VH: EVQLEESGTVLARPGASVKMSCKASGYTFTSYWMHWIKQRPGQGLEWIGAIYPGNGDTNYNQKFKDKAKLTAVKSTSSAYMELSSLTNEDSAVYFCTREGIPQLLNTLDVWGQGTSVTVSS VL: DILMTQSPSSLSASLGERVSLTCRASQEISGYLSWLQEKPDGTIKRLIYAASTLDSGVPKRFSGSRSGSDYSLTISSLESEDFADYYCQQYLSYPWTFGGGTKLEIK
Output line: 35.2

Input line: Need Neutralization (ng/mL), Pseudovirus IC80, item AB-1 full-length IgG1 (antibody, V domains shown) VH: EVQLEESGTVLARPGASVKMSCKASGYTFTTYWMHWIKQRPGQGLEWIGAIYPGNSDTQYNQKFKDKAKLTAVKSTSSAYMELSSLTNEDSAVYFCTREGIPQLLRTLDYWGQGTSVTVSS VL: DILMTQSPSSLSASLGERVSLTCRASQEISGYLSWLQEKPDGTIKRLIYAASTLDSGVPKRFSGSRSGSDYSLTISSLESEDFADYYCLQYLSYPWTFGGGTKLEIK
Output line: 2.6

Input line: Name the recorded Neutralization (ng/mL), Pseudovirus IC80 for AB-3 full-length IgG1 (antibody, V domains shown) VH: EVQLEESGTVLARPGASVKMSCKASGYTFTTYWMHWIKQRPGQGLEWIGAIYPGNGDTNYNQKFKDKAKLTAVKSTSSAYMELSSLTNEDSAVYFCTREGIPQKLRTLDVWGQGTSVTVSS VL: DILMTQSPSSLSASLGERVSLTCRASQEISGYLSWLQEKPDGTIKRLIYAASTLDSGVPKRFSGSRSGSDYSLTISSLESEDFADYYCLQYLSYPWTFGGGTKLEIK .
Output line: 110
